- Test system: HCT-116 colon
- Protocol details: NCI tumour cell line growth inhibition, 48 h
Catalogue of TGI values

Use the examples below as a reference point.
{"Structure as smiles": "COCO[C@@H]1C[C@H]2C(=O)Nc3ccccc3C(=O)N2C1", "TGI": "> 100 µM"}
{"Structure as smiles": "Cn1cc(C2=C(c3c4n(c5ccccc35)CCCCC4)C(=O)NC2=O)c2ccccc21", "TGI": "> 25 µM"}

# input for lookup
Given the molecule Nc1nc(-n2c(-c3ccccc3)nc3c(Br)cc(Br)cc3c2=O)nnc1-c1cccc(Cl)c1Cl , what is its reported TGI?
7.06 µM

----------
- Tested on: HOP-62 NSCLC
- Protocol details: NCI tumour cell line growth inhibition, 48 h
Endpoint: TGI

{"Structure as smiles": "COc1cc2c(c(OC)c1OC)C(=O)[C@@H]1[C@H]2N1C(N)=O", "Endpoint value": "> 100 µM"}
{"Structure as smiles": "CCN(CC)CCSc1c2ccccc2nc2cc(NCC(=O)Nc3ccccc3-c3ccccc3NC(=O)CNc3ccc4c(SCCN(CC)CC)c5ccccc5nc4c3)ccc12", "Endpoint value": "> 100 µM"}

// TGI lookup, key: Cc1ccc(S(=O)(=O)OC[C@@H]2CO2)cc1
> 100 µM

----------
- Test system: MALME-3M melanoma
- Protocol details: NCI tumour cell line growth inhibition, 48 h
Endpoint: TGI

{"Compound": "CN1CCN(C2=NCCO2)CC1", "TGI": "> 100 µM"}
{"Compound": "O=C1CCCSC(=O)N1Cc1ccccc1", "TGI": "> 100 µM"}
{"Compound": "Nn1c(-c2ccccc2)nn(C(=O)c2ccccc2)c1=O", "TGI": "> 100 µM"}

Would you mind telling me what TGI value was observed for CC(=O)NC(Cc1ccc(O)cc1)C(=O)O (configuration not stated) ?
> 100 µM

Please give the result for COc1ccc(CC2c3cc4c(cc3CCN2C)OCO4)c(C=O)c1OC (configuration not stated) too.
> 100 µM

Same thing, different compound: C=CCN1C[C@H](C)N([C@H](c2ccc(C(=O)NC(CC)CC)cc2)c2cccc(OC)c2)C[C@H]1C
43.5 µM

Also CCOC(=O)Cn1c(C(F)(F)F)nc2nc(Cl)c(Cl)nc21 ?
> 100 µM

Follow-up entry: Cc1ccccc1C(=O)N1CCc2c([nH]c3ccccc23)C1
81.5 µM

# repeat for COC(=O)c1ccccc1CC1Cc2ccc3c(c2C1=O)CCCC3 (configuration not stated)
> 82.5 µM

Could you do the same for COc1ccc2c(c1)sc1nc(-c3ccccc3)c(-c3cccc4ccccc34)n12 , please?
> 100 µM

Thanks! And NS(=O)(=O)c1ccc2c(c1)OCCOCCOCCOCCO2 ?
> 100 µM

Could you do the same for COC([CH2][Hg][n]1cnc2c1c(=O)n(C)c(=O)n2C)CN1C(=O)c2ccccc2S1(=O)=O (configuration not stated) , please?
> 100 µM

----------
- Test system: COLO 205 colon
- Protocol details: NCI tumour cell line growth inhibition, 48 h
# TGI per record follows

Here are 4 compounds together with their reported answers.
{"Compound": "Cc1ccc(CN2CCC(C(=O)Nc3ccc(-c4cc5ccccc5[nH]4)cc3)CC2)o1", "TGI": "> 100 µM"}
{"Compound": "COc1cc(/C=N\\NC(=O)CN2CCN(c3cc4c(cc3F)c(=O)c(C(=O)N/N=C/c3cc(OC)c(OC)c(OC)c3)cn4C3CC3)CC2)cc(OC)c1OC", "TGI": "> 23.2 µM"}
{"Compound": "N#CCCC1C(C#N)C2(Cl)CC1(Cl)C(Cl)=C2Cl (stereo not given)", "TGI": "> 10 µM"}
{"Compound": "CN1C(=O)C2CCC(=O)N2c2cccnc21 (stereo not given)", "TGI": "> 100 µM"}

// moving on: another record for TGI
Record request: TGI value, item CC(C)CCS(=O)(=O)OCCCCOS(=O)(=O)CCC(C)C
> 100 µM

----------
- Test system: MOLT-4 leukemia
- Protocol details: NCI tumour cell line growth inhibition, 48 h
Endpoint: TGI

Record excerpt, results attached:
{"Compound": "CN(C)N=Nc1ccc(C(N)=O)cc1", "TGI": "> 100 µM"}
{"Compound": "CC(=O)O[C@@H]1[C@H](C(C)C)[C@@H](OC(C)=O)C/C(C)=C/CC[C@]2(C)O[C@@H]12", "TGI": "> 100 µM"}

Fill in the blank: the reported TGI of CC1CCC(n2c3cnccc3c3cnc(Nc4ccc5c(n4)CCN(C(=O)CO)C5)nc32)CC1 (stereo not drawn) is ____.
> 100 µM

----------
This section presents molecules with their documented TGI values.
- Tested on: OVCAR-5 ovarian
- Protocol details: NCI tumour cell line growth inhibition, 48 h

See these solved cases before continuing.
{"Molecule": "O=C1NC(=NCCc2cccc(F)c2)S/C1=C\\c1ccc2ncccc2c1", "TGI": "> 25 µM"}
{"Molecule": "CCOC(=O)CCC1(C(=O)OCC)CCCCC1=O (stereo unspecified)", "TGI": "> 100 µM"}
{"Molecule": "C[C@]12CCC(O)CC1=CC[C@@H]1[C@@H]2CC[C@]2(C)C(=O)[C@H](n3ccnc3)C[C@@H]12 (stereo partly specified)", "TGI": "> 100 µM"}
{"Molecule": "COC(=O)c1cc(=O)nc2sc3cccc(C)c3n12", "TGI": "> 100 µM"}
{"Molecule": "COc1ccc(-c2c(C#N)c(-c3ccc(C)cc3)n(NS(=O)(=O)c3ccc(C)cc3)c(=O)c2C#N)cc1", "TGI": "> 100 µM"}

With those in mind, consider the next molecule.
Any idea what TGI was measured for C1CN(c2nc3c(nnc4nc(N5CCOCC5)sc43)s2)CCO1 ?
> 100 µM

----------
Entries and their measured TGI follow.
- Tested on: U251 CNS
- Protocol details: NCI tumour cell line growth inhibition, 48 h

# annotated cases, reported TGI shown
{"Compound": "O=C(Nc1nc2ccc([N+](=O)[O-])cc2s1)C(=O)C(C1OC(=O)c2ccccc21)[N+](=O)[O-] (stereo unspecified)", "Endpoint value": "> 100 µM"}
{"Compound": "c1ccc(N=c2sc3ccccc3nc2Nc2ccccc2)cc1", "Endpoint value": "> 100 µM"}
{"Compound": "C[C@@H](NC(=O)[C@@H]1C[C@]1(C)COC(=O)c1cc([N+](=O)[O-])cc([N+](=O)[O-])c1)c1cccc2ccccc12", "Endpoint value": "> 100 µM"}
{"Compound": "N#CCCC1C(C#N)C2(Cl)CC1(Cl)C(Cl)=C2Cl (stereo unspecified)", "Endpoint value": "> 10 µM"}
{"Compound": "COC(=O)c1cc(=O)nc2sc3cccc(C)c3n12", "Endpoint value": "> 100 µM"}

// returns reported TGI for input CNS(=O)(=O)NNS(=O)(=O)c1ccccc1
> 100 µM

Now this one: Cc1ccsc1C(=S)Nc1ccc(Cl)c(/C=N/OC(C)(C)C)c1
79.3 µM

Param item: Fc1[nH]nc2ccc([C@@H]3Nc4ccc5[nH]ncc5c4[C@H]4C5CCC(C5)[C@@H]34)cc12 (stereo partly specified)
13.5 µM

What about this compound? CC1(C)N=[N+]([O-])C1(C)C
> 100 µM

Quick one: CN(C)C(=O)O/N=C1/C(c2c(O)[nH]c3ccccc23)=Nc2ccccc21
33.9 µM

Repeat with CC1(C)C(=O)/C=C\C(=O)C(C)(C)C2=CC=C(O2)C(C)(C)C(=O)/C=C\C(=O)C(C)(C)C2=CC=C1O2
> 100 µM

And what about the compound COc1cc2c(c(OC)c1OC)C(=O)[C@@H]1[C@H]2N1C(N)=O ?
> 100 µM

O=C1CSC(c2ccc(Cl)cc2)N1c1ccc(Oc2ccc(Cl)cc2)c(Cl)c1 (stereo unspecified) ?
36.2 µM

Query CCN1/C(=C\c2cc[n+](CC)c3ccccc23)C=Cc2ccccc21 next
12.7 µM

Now the same for CCOC(=O)C(C)(C)Oc1ccc2c(-c3ccccc3)cc(=O)oc2c1
> 100 µM

Follow-up entry: CN1CCN(C2=NCCO2)CC1
> 100 µM

----------
Item-by-item account of TGI
- Tested on: KM12 colon
- Protocol details: NCI tumour cell line growth inhibition, 48 h

# count of solved cases: 2
{"Structure as smiles": "Cc1ccsc1C(=S)Nc1ccc(Cl)c(/C=N/OC(C)(C)C)c1", "Endpoint value": "> 100 µM"}
{"Structure as smiles": "COc1ccc(COCCOCc2nc(C#N)c(N)o2)cc1", "Endpoint value": "> 100 µM"}

Next, consider the following molecule.
Enter reported TGI observed with KM12 colon for COc1cnc2c(c1)C(=O)c1c-2n(CCCN2CCOCC2)c(=O)c2cc(F)ccc12
> 100 µM

----------
Attribute: TGI
- Test system: SK-OV-3 ovarian
- Protocol details: NCI tumour cell line growth inhibition, 48 h

// worked examples, TGI included
{"Structure as smiles": "Cc1cc(Cc2cc(C)c(N)cc2N)c(N)cc1N", "Assayed system": "SK-OV-3 ovarian", "TGI": "> 100 µM"}
{"Structure as smiles": "Cc1nc2n(c1/C=C1/C(=O)Nc3cccc(Cl)c31)CCS2", "Assayed system": "SK-OV-3 ovarian", "TGI": "35.1 µM"}

# evaluate next
Consider the molecule shown here: CC1(C)C(=O)/C=C\C(=O)C(C)(C)C2=CC=C(O2)C(C)(C)C(=O)/C=C\C(=O)C(C)(C)C2=CC=C1O2 What is its recorded TGI?
> 100 µM
